target: T1, soluble recombinant version of the IGLV3-21^R110-harboring B-cell receptor (monomeric human IgM, 170.5 kDa) (human); assay: BLI (Octet), antibody captured on anti-human IgG Fc sensor, soluble BCR as analyte, 1:1 model
T1 construct: Produced in 293-HEK cells by transient expression as monomeric human IgM; It was the analyte in solution in the BLI assay; also called soluble IGLV3-21^R110 B-cell receptor; soluble BCR-fragment
T1 sequence (heavy, as listed by the source limits assumed, chain 1 of 2): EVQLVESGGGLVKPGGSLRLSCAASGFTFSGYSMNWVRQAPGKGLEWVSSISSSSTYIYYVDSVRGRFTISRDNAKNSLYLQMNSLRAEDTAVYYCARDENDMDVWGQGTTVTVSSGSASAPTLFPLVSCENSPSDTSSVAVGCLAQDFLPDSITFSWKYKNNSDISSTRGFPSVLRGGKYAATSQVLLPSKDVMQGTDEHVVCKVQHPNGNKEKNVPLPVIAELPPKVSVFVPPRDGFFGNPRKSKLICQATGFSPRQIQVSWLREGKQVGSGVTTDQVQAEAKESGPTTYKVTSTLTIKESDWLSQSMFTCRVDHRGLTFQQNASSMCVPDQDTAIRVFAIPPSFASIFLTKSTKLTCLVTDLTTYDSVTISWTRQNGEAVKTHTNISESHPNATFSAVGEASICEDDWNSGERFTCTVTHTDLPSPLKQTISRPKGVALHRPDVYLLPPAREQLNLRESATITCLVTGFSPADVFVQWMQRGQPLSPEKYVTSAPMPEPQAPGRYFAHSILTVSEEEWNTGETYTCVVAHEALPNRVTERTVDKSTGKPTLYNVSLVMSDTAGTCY
T1 sequence (light, as listed by the source limits assumed, chain 2 of 2): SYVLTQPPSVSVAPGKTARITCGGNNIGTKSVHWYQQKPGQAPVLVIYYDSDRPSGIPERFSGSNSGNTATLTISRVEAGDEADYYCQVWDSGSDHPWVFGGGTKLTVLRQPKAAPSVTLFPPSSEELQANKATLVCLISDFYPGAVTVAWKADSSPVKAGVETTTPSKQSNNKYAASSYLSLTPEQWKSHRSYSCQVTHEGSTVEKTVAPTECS
recordedMetric: pKd
One number for each entry, as −log10 of the molar value.

Query block: Give the measured pKd for HC0-LC0 (antibody, human IgG1, kappa, V domains shown, Chimeric: mAb01-01 VH/VL on human IgG1 / human Ig kappa constant domains; also called chimeric antibody HC0-LC0; HC01 LC01) VH: QVQLQQSGPGLVQPSQSLSITCTVSGFSLTSYGIHWVRQSPGKGLEWLGVIWRGGGTDSNAAFMSRLSITKDNSKSQVFFKMNSLQADDTAIYYCARSRYDEEESMNYWGQGTSVTVSS VL: QIVLTQSPASLSASVGETVTITCRASGNIHSYLAWYQQKQGKSPQLLVYNAKTLADGVPSRFSGSGSGTQYSLKINSLQPEDFGSYYCQHFWNTPPTFGAGTKLELKR
Result block: 9.92
